The measured values listed here are drawn from PubChem BioAssay.

Each record here notes measured score.
- protocol description: suppressors of polyQ aggregation in yeast, 75Q-TubU reporter (AID 1593)
- study conditions: Yeast 75Q polyglutamine aggregation reporter

Sample records with score:
{"columns": ["molecule", "test readout", "recorded value"],
 "data": [
  ["C=C[C@H]1CN2CC[C@H]1C[C@@H]2[C@@H](O)c1ccnc2ccc(OC)cc12", "score", 1.3],
  ["CC1(C)S[C@@H]2[C@H](NC(=O)Cc3ccccc3)C(=O)N2[C@H]1C(=O)O", "score", 1.32],
  ["COc1cc2ccc(=O)oc2cc1O", "score", 1.15],
  ["C1N2CN3CN1CN(C2)C3", "score", 0.91],
  ["CCC(C)C(N)C(=O)N1CCCC1C(=O)NC(C(=O)O)C(C)CC (configuration not stated)", "score", 1.3],
  ["NC(=NCc1ccccc1)NC(=O)c1nc(Cl)c(N)nc1N", "score", 1.09]
]}

Lookup result for CC1=C(/C=C/C(C)=C/C=C/C(C)=C/C=C/C=C(C)/C=C/C=C(C)/C=C/C2=C(C)CCCC2(C)C)C(C)(C)CCC1 ; measured score: 1.3

Lookup result for N[C@H](Cc1ccccc1)C(=O)O ; measured score: 1.59

Lookup result for COC(=O)[C@H]1[C@H]2C[C@H]3c4[nH]c5cc(OC)ccc5c4CCN3C[C@H]2C[C@@H](OC(=O)c2cc(OC)c(OC)c(OC)c2)[C@@H]1OC ; measured score: 1.04

Lookup result for O=C1C[C@@H](c2ccc(O)cc2)Oc2cc(O)cc(O)c21 ; measured score: 1.28

====

- protocol description: stimulators of nuclear beta-catenin in C2C12, primary screen, imaging, WNT3A-conditioned medium, mouse C2C12, NPC library (AID 1117326); also: reference of the scale not given here
- study conditions: stimulation, at 2 µM, stronger effect = higher value
test readout: nuclear beta-catenin stimulation (%)
Give the value in % but do not write % after it.

Sample records with nuclear beta-catenin stimulation:
{"columns": ["compound", "nuclear beta-catenin stimulation / %"],
 "data": [
  ["Nc1nc(Cl)nc2c1ncn2[C@@H]1O[C@H](CO)[C@@H](O)[C@@H]1F", 17.4],
  ["NS(=O)(=O)c1cc(Cl)c(Cl)c(S(N)(=O)=O)c1", 0.4],
  ["O=S1(=O)c2cccc3cccc(c23)N1CCCN1CCN(c2ccc(F)cc2)CC1", 17.7],
  ["O=c1[nH]c2cc(C(F)(F)F)c(N3CCOCC3)cc2n(CP(=O)(O)O)c1=O", -0.5]
]}

Turning to the following compound.
Lookup result for N[C@H]1C(O)O[C@H](CO)[C@@H](O)[C@@H]1O (stereo not given in full) ; measured nuclear beta-catenin stimulation: 1.7

====

- protocol description: survival rescue of mitochondrial mutant cells in low glucose, primary screen, MELAS cybrids, Rieske KO mouse fibroblasts, CellTiter-Glo (AID 1508586);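 also: z relative to plate mean and SD of compound and empty wells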
- study conditions: Rieske KO mouse fibroblast survival, CellTiter-Glo 72 h
test readout: z-score
I'd appreciate a reply containing only the number, no unit.

Lookup result for CN1CCCC(CC2c3ccccc3Sc3ccccc32)C1 (stereo not given) ; measured z-score: 0.0453

Lookup result for CCn1c(=O)c2c(nc(C=Cc3ccc(OC)c(OC)c3)n2C)n(CC)c1=O ; measured z-score: 0.0933

Lookup result for CC(C)C[C@H]1C(=O)N2CCC[C@H]2[C@]2(O)O[C@](NC(=O)[C@@H]3C=C4c5cccc6[nH]c(Br)c(c56)C[C@H]4N(C)C3)(C(C)C)C(=O)N12 ; measured z-score: -0.261

Lookup result for CN(C(=O)CN(CCO)CC(=O)N(C)C(C)(C)Cc1ccccc1)C(C)(C)Cc1ccccc1 ; measured z-score: -0.15

Lookup result for O=C(OCCOCCO)c1ccccc1Nc1cccc(C(F)(F)F)c1 ; measured z-score: 0.111

Lookup result for CNCCCN1c2ccccc2CCc2ccccc21 ; measured z-score: 0.183

Lookup result for C[N+](C)(C)CC(O)CC(=O)O (stereo not given) ; measured z-score: -0.217

Lookup result for CC[C@H](CO)NCCN[C@H](CC)CO ; measured z-score: 0.22

Lookup result for O=c1[nH]c(=O)n([C@H]2C[C@H](O)[C@@H](CO)O2)cc1C(F)(F)F ; measured z-score: 1.84

Lookup result for C[C@]1(Cn2ccnn2)[C@H](C(=O)O)N2C(=O)C[C@H]2S1(=O)=O ; measured z-score: -0.0503

====

- protocol description: SU-DIPG-XXV glioma cell viability, MIPE5.0 library, qHTS (AID 1347068);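 as to IC50: cells exposed to compound for 48 hours before viability readout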
Inconclusive results are not listed. Active and inactive are the calls of the source. No cut-off is given here; in the data, nearly all actives have IC50 up to about 30 µM.
test readout: IC50

Sample records with IC50:
{"columns": ["compound", "test readout", "recorded value"],
 "data": [
  ["CCC(C)(Oc1ccc(C2(c3ccc(OC(C)(CC)C(=O)O)cc3)CCCCC2)cc1)C(=O)O (stereo not given)", "IC50", "inactive"],
  ["Cc1ccc(-n2nc(C(C)(C)C)cc2NC(=O)Nc2ccc(OCCN3CCOCC3)c3ccccc23)cc1", "IC50", "inactive"],
  ["NC(=O)c1cccnc1", "IC50", "inactive"],
  ["C=CC(=O)Nc1cc2c(Nc3ccc(F)c(Cl)c3)ncnc2cc1OCCCN1CCOCC1", "IC50", "5250 nM (active)"],
  ["Clc1ccc(Nc2nnc(Cc3ccncc3)c3ccccc23)cc1", "IC50", "inactive"],
  ["O=S(=O)(c1cccc2cnccc12)N1CCCNCC1", "IC50", "inactive"],
  ["c1cnc2cc3c(cc2n1)C1CNCC3C1", "IC50", "inactive"],
  ["CC[C@]1(O)C[C@H]2CN(CCc3c([nH]c4ccccc34)[C@@](C(=O)OC)(c3cc4c(cc3OC)N(C=O)[C@H]3[C@@](O)(C(=O)OC)[C@H](OC(C)=O)[C@]5(CC)C=CCN6CC[C@]43[C@@H]65)C2)C1", "IC50", "235 nM (active)"],
  ["CCCCC(CC)COC(=O)C(C#N)=C(c1ccccc1)c1ccccc1 (stereo not given)", "IC50", "inactive"]
]}

Turning to the following compound.
Lookup result for Cn1c(=O)c2c(ncn2CC2OCCO2)n(C)c1=O ; measured IC50: inactive

====

- protocol description: stimulators of nuclear beta-catenin in C2C12, primary screen, imaging, WNT3A-conditioned medium, mouse C2C12, NPC library (AID 1117326); also: reference of the scale not given here
- study conditions: at 10 µM, stronger effect = higher value
test readout: nuclear beta-catenin stimulation (%)
Give the value in % but do not write % after it.

Lookup result for O=C1OC(CN2CCOCC2)CN1/N=C/c1ccc([N+](=O)[O-])o1 (stereo unspecified) ; measured nuclear beta-catenin stimulation: 1.3

Lookup result for N=C(N)N1CCc2ccccc2C1 ; measured nuclear beta-catenin stimulation: 0.5

Lookup result for CN(C)[C@@H](CCOc1cccc2ccccc12)c1ccccc1 ; measured nuclear beta-catenin stimulation: 0.1

Lookup result for O=C(O)c1c(Cl)c(Cl)c(Cl)c(Cl)c1-c1c2cc(I)c(=O)c(I)c-2oc2c(I)c(O)c(I)cc12 ; measured nuclear beta-catenin stimulation: -2.4

Lookup result for COc1cccc(N(C)C(=S)Oc2ccc3c(c2)CCCC3)n1 ; measured nuclear beta-catenin stimulation: 0.4

Lookup result for COc1ccc2c(c1)c1c3n2CCN(C)C3=NCC1 ; measured nuclear beta-catenin stimulation: 1.3

====

- protocol description: sensitizers of A549 cells to miR-34 induction, primary screen, imaging, A549 dox-inducible miR-34, nuclei and caspase counts (AID 1347080)
- study conditions: A549 miR-34 inducible, Hoechst nuclei count, 48 h; measured here: total cells without miR-34 induction
test readout: cell count
I'd appreciate a reply containing only the number, no unit.

Sample records with cell count:
{"columns": ["compound", "cell count"],
 "data": [
  ["CN[C@H](CC(=O)O)C(=O)O", 10300],
  ["COc1ccc(C(C)=O)c(O)c1", 10300],
  ["CC(=O)c1ccc2c(c1)N(CCCN1CCC(CCO)CC1)c1ccccc1S2", 8930],
  ["O=C(NOCC1CC1)c1ccc(F)c(F)c1Nc1ccc(I)cc1Cl", 2940],
  ["CN(C)c1nc(N)c(C(=O)N=C(N)N)nc1Cl", 9710]
]}

Lookup result for OC1C(O)C(O)C(O)C(O)C1O (stereo unspecified) ; measured cell count: 12900

Lookup result for CC(C)(C)CC(C)(C)c1cc(Cc2cc(C(C)(C)CC(C)(C)C)cc(-n3nc4ccccc4n3)c2O)c(O)c(-n2nc3ccccc3n2)c1 ; measured cell count: 9830

Lookup result for COc1cc(C2c3cc4c(cc3C(OC3OC5COC(C)OC5C(O)C3O)C3COC(=O)C23)OCO4)cc(OC)c1O (stereo unspecified) ; measured cell count: 4090

Lookup result for CCN(CC)C(=O)/C(C#N)=C/c1cc(O)c(O)c([N+](=O)[O-])c1 ; measured cell count: 11500

Lookup result for CC(C)OC(=O)C(C(=O)OC(C)C)=C1SC=CS1 ; measured cell count: 8520

Lookup result for C[C@@H]1[C@H](O)[C@@H](C)/C=C/C=C/C=C/C=C/C=C/C=C/C=C/[C@H](O[C@@H]2O[C@H](C)[C@@H](O)[C@H](N)[C@@H]2O)C[C@@H]2O[C@](O)(C[C@@H](O)C[C@@H](O)[C@H](O)CC[C@@H](O)C[C@@H](O)CC(=O)O[C@H]1C)C[C@H](O)[C@H]2C(=O)O ; measured cell count: 8570
